test: in vivo pharmacokinetics, dog; set-up: species or system Beagle dogs; details: Beagle, plasma, intravenous, body weight 10 kg, read-out: Vss
Readout Name: Vd (L)
Reply numerically in L, unit not repeated.

[in] Look at this compound and give its reported Vd. "O=C1CN(C(=O)c2c(F)cccc2F)[C@H](c2cccc(Br)c2)N1O"
[out] 13.6

###

test: in vivo pharmacokinetics, rat; parameters: species or system Wistar rats; details: Wistar, plasma, intravenous, body weight 0.29 kg, read-out: Vss
Readout Name: Vd (L)
Report as a plain number; the unit L is understood.

[in] Field request: Vd | item: "O=C1CN(C(=O)c2c(F)cccc2F)[C@H](c2cccc(Br)c2)N1O"
[out] 0.417

Reference for the values: paper PMC7876453
